Biological target: c-Met Fc fusion (UniProt P08581 P08581:25-932)
Sequence (P08581 25-932, one chain of several): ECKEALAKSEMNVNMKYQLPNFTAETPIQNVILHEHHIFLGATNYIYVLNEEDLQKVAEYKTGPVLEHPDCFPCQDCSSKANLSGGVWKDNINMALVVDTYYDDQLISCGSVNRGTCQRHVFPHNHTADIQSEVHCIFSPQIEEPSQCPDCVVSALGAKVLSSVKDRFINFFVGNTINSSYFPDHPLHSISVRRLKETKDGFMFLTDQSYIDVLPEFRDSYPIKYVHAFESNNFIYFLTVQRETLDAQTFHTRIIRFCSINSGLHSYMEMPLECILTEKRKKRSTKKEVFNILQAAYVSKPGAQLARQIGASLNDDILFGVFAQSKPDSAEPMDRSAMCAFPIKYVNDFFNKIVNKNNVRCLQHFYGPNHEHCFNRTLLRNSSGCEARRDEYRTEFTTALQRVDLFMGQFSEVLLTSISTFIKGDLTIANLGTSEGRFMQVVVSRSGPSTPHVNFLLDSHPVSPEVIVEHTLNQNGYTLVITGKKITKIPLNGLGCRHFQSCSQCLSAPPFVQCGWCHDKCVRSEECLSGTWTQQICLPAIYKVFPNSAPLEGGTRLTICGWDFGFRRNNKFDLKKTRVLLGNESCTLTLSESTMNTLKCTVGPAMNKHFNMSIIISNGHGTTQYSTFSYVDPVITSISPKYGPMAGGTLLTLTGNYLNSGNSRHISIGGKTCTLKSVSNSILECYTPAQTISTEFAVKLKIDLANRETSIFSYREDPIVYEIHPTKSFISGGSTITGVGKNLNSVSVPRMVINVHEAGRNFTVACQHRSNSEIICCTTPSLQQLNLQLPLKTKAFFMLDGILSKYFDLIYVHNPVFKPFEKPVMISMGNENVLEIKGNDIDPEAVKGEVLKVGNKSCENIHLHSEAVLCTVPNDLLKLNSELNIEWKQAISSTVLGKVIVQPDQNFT
Test: filter; 91±40 pM, n=3, dot blot; heading cites SEQ ID NO 53 but CLN0003 is SEQ 52
Conditions: tags: Fc-His fusion; chain copies: 2
Property: Kd (nM)
Only the number, expressed in nM, is required.

Please look at this binder and report its Kd: CLN0003 (ssDNA) DNA: GGAGGGAAAAGTTATCAGGCTGGATGGTAGCTCGGTCGGGGTGGGTGGGTTGGCAAGTCTGATTAGTTTTGGAGTACTCGCTCC 0.091
